Sourced from patent US20030118649A1

Assay Method Text: Fluorescence imaging of doxorubicin distribution in rabbit livers after millirod implantation
Condition Summary: in vivo
Quantity Measured: concentration at 24 h

Exercise: I am curious: what concentration at 24 h value has been reported for COc1cccc2c1C(=O)c1c(O)c3c(c(O)c1C2=O)C[C@@](O)(C(=O)CO)C[C@@H]3O[C@H]1C[C@H](N)[C@H](O)[C@H](C)O1 [doxorubicin] ?
Key: 50000 ng/g
